# Test system: U251 CNS
Labels: y (active), n (inactive)

[[record]]
molecule = "Cn1ncc2c(Sc3ccc(Cl)cc3)ncnc21"
class_name = "n"

[[record]]
molecule = "CCCC(c1nnnn1C1CCCCC1)N1CCN(C(=O)c2ccco2)CC1 (centres undefined)"
class_name = "n"

[[record]]
molecule = "COc1cc(-c2nc3ccccc3s2)ccc1OCCCCCOc1cc2c(cc1OC)C(=O)N1CCC[C@H]1C=N2"
class_name = "y"

[[record]]
molecule = "Cc1cc(C)c(-c2cc(O)c(-c3c(C)cc(C)cc3C)cc2O)c(C)c1"
class_name = "n"

[[record]]
molecule = "COc1cc(-c2nc3ccc(C)cc3[nH]2)ccc1OCC(=O)N=Nc1c(O)[nH]c2ccc(Cl)cc12"
class_name = "y"

[[record]]
molecule = "Cc1cc2c([nH]1)CSc1cc(S(=O)(=O)c3ccccc3)c(=O)[nH]c1-2"
class_name = "y"

[[record]]
molecule = "O=C1Nc2ccccc2/C1=C/C(=N/c1nnc(-c2ccccc2)s1)c1ccccc1"
class_name = "n"

[[record]]
molecule = "c1ccc(-c2c(-c3ccccc3)[n+](Cc3ccc4ccccc4c3)c(-c3cccc4ccccc34)n2Cc2ccc3ccccc3c2)cc1"
class_name = "y"

[[record]]
molecule = "COc1ccc2c(c1)C(=O)c1c-2n(CCCCl)c(=O)c2cc(OC)c(OC)cc12"
class_name = "n"


---

# Test system: HS 578T breast
# ASSAY METHOD TEXT: NCI tumour cell line growth inhibition, 48 h
READOUT: TGI

[[record]]
molecule = "CC(C)(C)c1ccc(C(=O)Nc2sc3c(c2C#N)CCC(=O)C3)cc1"
recorded_result = "> 20.5 µM"

[[record]]
molecule = "CN(C)c1ccc(/C=C/c2nc3ccccc3s2)cc1"
recorded_result = "> 100 µM"

[[record]]
molecule = "CS(=O)(=O)N1CC(CI)c2ccc(O)cc21 (stereo not drawn)"
recorded_result = "> 100 µM"

[[record]]
molecule = "COc1cc(-c2nc3ccccc3s2)ccc1OCCCCCOc1cc2c(cc1OC)C(=O)N1CCC[C@H]1C=N2"
recorded_result = "0.6 µM"

[[record]]
molecule = "O=C(/C=C/c1ccsc1)c1ccc(Cl)cc1"
recorded_result = "> 100 µM"

[[record]]
molecule = "O=[N+]([O-])O"
recorded_result = "> 100 µM"

[[record]]
molecule = "Cc1c(C(=O)OCc2ccccc2)[n+](=O)c2ccccc2n1[O-]"
recorded_result = "72.9 µM"

[[record]]
molecule = "COc1ccc(C2CC(c3cc(Cl)c(C)cc3O)=NN2c2ccc(S(N)(=O)=O)cc2)cc1OC (stereo not drawn)"
recorded_result = "34.3 µM"

[[record]]
molecule = "CCCC[C@@H](C)/C=C1\\CN2CCC[C@H]2[C@@](C)(O)[C@@H]1O"
recorded_result = "> 100 µM"

[[record]]
molecule = "Cc1cccc(NC(=O)/C=C/c2ccccc2)c1C"
recorded_result = "> 100 µM"

[[record]]
molecule = "N#CCCOc1cccc(C2(N3CCCCC3)CCCCC2)c1"
recorded_result = "> 100 µM"

[[record]]
molecule = "c1ccc(CSc2nc(N3CCCCC3)c3cn[nH]c3n2)cc1"
recorded_result = "43.9 µM"

[[record]]
molecule = "COc1ccc2nc(NNC(=O)c3cnccn3)c3cccn3c2c1"
recorded_result = "> 59.9 µM"

[[record]]
molecule = "COc1cc2c(c(OC)c1OC)-c1cccc(=O)cc1C(NC(C)=O)CC2 (stereo not drawn)"
recorded_result = "> 100 µM"

[[record]]
molecule = "N#CCN1c2ccccc2CCC1Cl (stereo not drawn)"
recorded_result = "> 10 µM"

[[record]]
molecule = "C=CN1CCN(c2ccccc2)P1(=O)Oc1ccccc1 (stereo not drawn)"
recorded_result = "> 100 µM"

[[record]]
molecule = "Cc1nc2cc([N+](=O)[O-])ccc2c(NCCCN(C)C)c1C"
recorded_result = "75.7 µM"

[[record]]
molecule = "NCCOc1ncccc1/C=C1\\c2ccccc2-c2ccc(F)cc21"
recorded_result = "5.02 µM"

[[record]]
molecule = "O=P(O)(O)C(NCC(O)CN1CCOCC1)P(=O)(O)O (stereo not drawn)"
recorded_result = "> 100 µM"

[[record]]
molecule = "CCCCCCCCc1cc[n+](CC(=O)c2ccc(Br)cc2)cc1"
recorded_result = "3.75 µM"

[[record]]
molecule = "COC(=O)CCCC(=O)NC1=C(Nc2ccc(OC)cc2)C(=O)c2ccccc2C1=O"
recorded_result = "57.8 µM"

[[record]]
molecule = "c1ccc(-c2cc(-c3cccs3)c(-c3cccs3)s2)cc1"
recorded_result = "> 100 µM"

[[record]]
molecule = "O=S1CCN(Cc2ccc(-c3ccc4ncnc(Nc5ccc(OCc6cccc(F)c6)c(Cl)c5)c4c3)o2)CC1"
recorded_result = "> 21.6 µM"

[[record]]
molecule = "O=C(CCl)Nc1ccc2c(c1)C(=O)c1ccccc1C2=O"
recorded_result = "20.1 µM"

[[record]]
molecule = "O=C(O)CNC(=O)C(CSC(=O)OCC1c2ccccc2-c2ccccc21)NC(=O)CCC(NC(=O)OCC1c2ccccc2-c2ccccc21)C(=O)O (stereo not drawn)"
recorded_result = "> 100 µM"

[[record]]
molecule = "C[n+]1c(-c2ccccc2)cc2/c(=C\\c3ccccc3)c3ccccc3n21"
recorded_result = "0.576 µM"

[[record]]
molecule = "O=C(N/N=C(/COc1ccccc1Cl)N=Cc1cccnc1)c1ccncc1"
recorded_result = "> 100 µM"

[[record]]
molecule = "NC(=O)SCC(=O)Nc1ccc2cccc3c2c1CC3"
recorded_result = "> 100 µM"

[[record]]
molecule = "COC(=O)c1c(OC(C)=O)ccc2c1c1c(OC(C)=O)c3ccccc3c(OC(C)=O)c1n2C"
recorded_result = "62.5 µM"

[[record]]
molecule = "COc1cc(/C=N/Nc2ncnc3[nH]ncc23)ccc1O"
recorded_result = "> 20.5 µM"

[[record]]
molecule = "CC1(C)SC2C(NC(=O)C(C(=O)O)c3ccccc3)C(=O)N2C1C(=O)O (stereo not drawn)"
recorded_result = "> 100 µM"

[[record]]
molecule = "FC(F)(F)c1ccc(-c2cnc(Cl)nc2NC2CCCCCC2)cc1"
recorded_result = "> 100 µM"

[[record]]
molecule = "O=S1CCN(Cc2ccc(-c3ccc4ncnc(Nc5ccc(OCc6ccccc6)c(Cl)c5)c4c3)o2)CC1"
recorded_result = "> 25 µM"

